B1: ACSBG2 (parent)
chain: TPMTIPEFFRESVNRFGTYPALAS

# Variants of: B1
# protocol: protein stability index of a GFP-peptide fusion (GPS, HEK-293T) (PSI 1-6); higher = more stable;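 also: lentivirally expressed fusions sorted by FACS into six bins by GFP to DsRed ratio, PSI derived from sequencing read proportions per bin multiplied by bin number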
# protocol_conditions: c terminus: a fixed tail appended
Quick list: protein stability index per entry.

monomer_sequence	measured_attribute	reading
TPMTIPEFFRMSVNRFGTYPALAS	protein stability index	2.76
TPMTIPEFFRESVNRFGTYPNLAS	protein stability index	2.19

Query: protein stability index; subject: TPMTIPEFFREEVNRFGTYPALAS
2.69

Query: protein stability index; subject: TLMTIPEFFRESVNRFGTYPALAS
1.93
